test: yeast display, Sf9 membrane polyspecificity reagent, FACS + sequencing; frameworks hold sequencing errors
parameter: polyreactivity (PSR sort gate)

Worked cases, answers included:
Query: Please give the measured polyreactivity (PSR sort gate) for this sequence: QVQLVESGGGLVQAGGSLRLSCAASGRIFRLYTMGWYRQAPGKERELVAAISSAGSTKYADSVKGRFTISRDNAKNTVYLQMNSLKPEDTAVYYCAAGRYYYRSGFYTPVRYYSWGQGTQVTVSS
Response: high polyreactivity

Query: Subsequent entry: QVQLVESGGGLVQAGGSLRLSCAASGRIFPRYAMGWYRQAPGKERELVARITRRGGITYYADSVKGRFTISRDNAKNSVYLQMNSLKPEDTAVYYCNVDYYRGGDFSYGYDYWGQGTQVTVSS
Response: high polyreactivity

Query: Another sequence to check: QVQHVESGGGLVQAGGSLRLSCAASGSTFVQNAMGWYRQAPGKERELVAAISRSGGRTYYAYSVKGRFTISRDNAKNTVYLQMNSLKPEDTAVYYCAARYPVRPDDGYWGKGTQVTVSS
Response: high polyreactivity

Query: // next record QVQLVESGGGLVQAGGSLRLSCAASGRIFGKYVMVWYRQEPGKERELVAGISWSAGSTYYADSVKGRFTISRDTAKNTVYLQMNSLKPEDSAVYSCAAGLEGGYDYWGQGTEVTVSS
Response: low polyreactivity

---
Query: What does the data say about its polyreactivity (PSR sort gate)? Entry: QVQLVESGGGLVKEGGSLRLSCAASGRIFGPYAMGWYRQAPGKERELVAVITNSGSTNYADSVKGRFTISRDNAKNSVYLQMNCLKPEDTAVYYCNRFEGGAYGSNFDYWGQGTQVTVSS
Response: high polyreactivity

Query: How about QVKLVESGGGLVQAGGSLRLSCAASGSTFFIYTKGLYRQAPGKEREFVAAISWTGGRTYYADSVKGRFTISRDNAKNTVYLQMNSLKPEDTAVYYCAARYKYSSYDYWGQGTQVTVSS ?
Response: high polyreactivity

Query: Repeat with QVQLVESGGGLVQAGGSLRLSCAASGIFIDSNAMGWNRQAPGKERELVAAITSGGSTKYADSVKGRFTISRDTAKNTVYLQMNSLKPVDTAVYYCNAGPAVRSAYSTPYYDYWGLGTQVTVSS
Response: low polyreactivity

====

assay: yeast display, Sf9 membrane polyspecificity reagent, FACS + sequencing; frameworks hold sequencing errors
parameter: polyreactivity (PSR sort gate)

Query: Need polyreactivity (PSR sort gate), item QVQLVESGGGLVQAGGSLRLSCAAYGRIFDNNAMGWYRQAPGKERELVAAIDWRGGSTDYADSVKGRFTISRDNAKNTVYLQMNSLKPEDTAVYYCVAGHVPYWHGNSYDYWGQGTQVTVSS
Response: low polyreactivity

Query: One more sequence: QFQLVESGGGLVQAGGSLRLSCAASGSTFGVYAMGWYRQAPGKERELVATINSGGSTNYADSVKGLFTISRDNAKNTVYLQMNSLKPEDTAVYYCAAGPFWQDFYVYEYDYWGQGTQVTVSS
Response: low polyreactivity

====

assay: yeast display, Sf9 membrane polyspecificity reagent, FACS + sequencing; frameworks hold sequencing errors
parameter: polyreactivity (PSR sort gate)

Previously resolved entries follow.
Query: Which polyreactivity (PSR sort gate) is listed for QVQLVESGGGLVQAGRSLRLSCAAYGYTFEFYAMGWYRQAPGKEREFVAGINSSGVTTYYADSVKGRFTIARDNAKYTVYLQMNSLKPVYSAVYYCAATDVVYTWFFLVYIPYDYWGQGTQVTVSS ?
Response: low polyreactivity

Query: What about KVQLVESGGGLVQAGGSLRLSCAASGSIFHNYDMGWYRQAPGKERELVADISRGGDTNYADSVKGRFTISRDNAKNTVYLEMKSLKPEDTAVYYCNATYWILDFPWWRETFDYWGQGTQVTVSS ?
Response: low polyreactivity

Query: Request: QVQVVESGGGLVQAGGSLRLSCAASGYIFDYYAMGWYRQAPGKERELVAAISSSGGTTYYADSVKGRFTISRDNAKNTVYLQMNSLKPEDTAVYYCAADAVLPRSDYWGQGTQVTVSS
Response: high polyreactivity

Query: Also need QVQLVESGGGLVQAGGSLRLSCAASGFTFYSYAMGWYRQAPGKERELVAAISRSGGRTYYADSVKGRFTISRDNAKNTVYLQMNSLKPEDTAVYYCAAEAYGPYSYSYSPYGYYYWGQGTQVTVSS , thanks.
Response: high polyreactivity

Query: What do you have for QVQLVESGVGLVQAGGSLRLSCAASGSIFKYYAMGWYRQAPGKERELVAAISSNGGRTYYADSVKGRFTISRDNAKNTDYLQMNSLKPEDTAVYYCARRYRRTGESEYDYWGQGTQVTVSS ?
Response: high polyreactivity

Others:
Query: // lookup polyreactivity (PSR sort gate) for QVQLVESGGGLVQAGGSLRLSCAASGFTFSYYAKGWYRQAPGKERELVAVISDRGGITYYADSVKGRFTISRDNAKNTVYLQMNSLKPEDTAVYYCAAQNPRYNDRYYYWGQGTQVTVSS
Response: low polyreactivity

Query: Please give the result for QVQLVESGGGLVQAGGSLRLSCAASGFTFTRNAMGWYRQAPGKERELVAAITSSGGRTYYADSVKGRFTISRDNAKNTVYLQMNSLKPEDTAVYYCAVYPRYSLPARDYDYWGQGTQVTVSS too.
Response: high polyreactivity

Query: What do we get for QVQLVESGGGLVQAGGSLRLSCAASGSIFYFHALGWYRQAPGKERELVAAITRRGGSTRYADSVKGRFTISRDNAKNTVYLQMNSLKPEDTAVYYCAAVKEYSYSYKSYDVYYWGQGTQVTVSS ?
Response: high polyreactivity

Query: Here is the next sequence: QVQLVESGGGLVQAGGSLRLSCAASGFTFYYYAMGWYRQAPGTEMELVAALSRSGVRTYYADSVNGRFTISRDNGKNTVYLQMTSLKPEDTAVYYCAAEFARSRMNYWGQGTKVTVSS
Response: high polyreactivity
